# System: PXR homodimer (NR concentration 270 nM)
# assayNotes: PBM binding z-score (relative to random genomic background probes); higher = stronger binding; sequences stand for … in GC…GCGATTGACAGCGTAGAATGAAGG
Measured PBM binding z-score values are reported for all entries that follow.
measuredProperty: PBM binding z-score

| sequenceCode | measuredProperty | measuredValue |
| --- | --- | --- |
| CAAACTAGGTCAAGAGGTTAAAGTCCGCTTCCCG | PBM binding z-score | 0.622 |
| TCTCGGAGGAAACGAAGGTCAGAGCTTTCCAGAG | PBM binding z-score | -0.378 |
| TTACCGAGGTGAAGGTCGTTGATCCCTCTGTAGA | PBM binding z-score | 0.178 |
| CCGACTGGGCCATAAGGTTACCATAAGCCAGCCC | PBM binding z-score | -0.806 |
| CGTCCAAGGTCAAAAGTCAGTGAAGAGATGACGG | PBM binding z-score | 0.638 |
| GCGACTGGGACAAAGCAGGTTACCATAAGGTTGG | PBM binding z-score | -0.224 |
| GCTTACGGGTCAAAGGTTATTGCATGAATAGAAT | PBM binding z-score | 0.728 |
| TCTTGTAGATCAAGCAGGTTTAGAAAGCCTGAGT | PBM binding z-score | -0.0713 |
| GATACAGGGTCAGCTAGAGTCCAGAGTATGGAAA | PBM binding z-score | -0.0221 |
| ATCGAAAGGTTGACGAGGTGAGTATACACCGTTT | PBM binding z-score | 0.374 |
| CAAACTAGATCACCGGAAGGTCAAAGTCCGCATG | PBM binding z-score | 1.53 |
| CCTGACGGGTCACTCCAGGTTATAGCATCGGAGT | PBM binding z-score | 0.176 |
| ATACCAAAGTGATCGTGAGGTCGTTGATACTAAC | PBM binding z-score | 1.59 |
| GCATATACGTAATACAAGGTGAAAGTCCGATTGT | PBM binding z-score | 0.191 |
| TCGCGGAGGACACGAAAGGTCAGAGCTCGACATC | PBM binding z-score | 0.407 |
| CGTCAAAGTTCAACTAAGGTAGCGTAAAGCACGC | PBM binding z-score | 4.13 |
| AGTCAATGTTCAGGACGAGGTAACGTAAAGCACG | PBM binding z-score | -0.33 |
| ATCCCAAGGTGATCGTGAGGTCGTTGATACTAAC | PBM binding z-score | 1.37 |
| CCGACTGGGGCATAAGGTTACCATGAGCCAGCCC | PBM binding z-score | -0.667 |
| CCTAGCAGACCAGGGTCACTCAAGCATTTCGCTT | PBM binding z-score | -0.0947 |
| ATATGTAGGTTAAGGGTCATCCAGGTTGGTTCGC | PBM binding z-score | 2.5 |

###

# Tested on: RXRa homodimer (NR concentration 180 nM)
# assayNotes: PBM binding z-score (relative to random genomic background probes); higher = stronger binding; sequences stand for … in GC…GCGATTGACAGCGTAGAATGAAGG
Measured PBM binding z-score values are reported for all entries that follow.

| sequenceCode | PBM binding z-score |
| --- | --- |
| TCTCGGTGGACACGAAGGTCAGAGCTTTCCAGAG | 1.55 |
| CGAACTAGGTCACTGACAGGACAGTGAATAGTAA | 2.88 |
| TCGAGTAGGTTACCAATGGGGCAATCAGCTTTCT | 0.707 |
| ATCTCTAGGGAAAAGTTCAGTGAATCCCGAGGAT | 0.636 |

###

# System: LXRa homodimer (NR concentration 270 nM)
# assayNotes: PBM binding z-score (relative to random genomic background probes); higher = stronger binding; sequences stand for … in GC…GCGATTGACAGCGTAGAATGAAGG

| sequenceCode | PBM binding z-score |
| --- | --- |
| TAGCCTAGGTCATGCGGGCAAGTATAGTGTCGGC | 0.517 |
| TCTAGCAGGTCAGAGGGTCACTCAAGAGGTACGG | 0.192 |
| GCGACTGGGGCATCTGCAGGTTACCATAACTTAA | -0.281 |
| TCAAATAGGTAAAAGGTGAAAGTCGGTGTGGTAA | 0.419 |
| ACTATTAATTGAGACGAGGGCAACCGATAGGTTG | 0.685 |
| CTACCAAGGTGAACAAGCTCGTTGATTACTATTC | -0.188 |
| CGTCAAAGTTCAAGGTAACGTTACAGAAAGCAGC | 3.04 |
| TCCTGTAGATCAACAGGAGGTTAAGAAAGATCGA | 0.0543 |
| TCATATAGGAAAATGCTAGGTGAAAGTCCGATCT | 0.237 |
| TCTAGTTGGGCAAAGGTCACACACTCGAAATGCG | 3.14 |
| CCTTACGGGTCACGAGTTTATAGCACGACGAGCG | 0.393 |
| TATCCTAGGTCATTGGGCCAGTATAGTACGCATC | 5.49 |
| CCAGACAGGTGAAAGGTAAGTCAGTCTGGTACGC | -0.142 |
| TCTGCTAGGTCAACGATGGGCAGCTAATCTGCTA | -0.252 |
| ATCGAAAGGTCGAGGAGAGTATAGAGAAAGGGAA | 0.202 |
| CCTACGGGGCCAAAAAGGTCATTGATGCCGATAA | 2.76 |
| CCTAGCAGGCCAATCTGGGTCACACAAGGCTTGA | -0.247 |

###

Measured PBM binding z-score values are reported for all entries that follow.
# Tested on: PPARg:RXRa IVT, anti-PPARg (NR concentration 270 nM, RXRa partner concentration 90 nM)
# assayNotes: PBM binding z-score (relative to random genomic background probes); higher = stronger binding; sequences stand for … in GC…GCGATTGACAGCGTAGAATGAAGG

| sequenceCode | targetDesc | PBM binding z-score |
| --- | --- | --- |
| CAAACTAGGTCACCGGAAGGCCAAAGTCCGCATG | PPARg:RXRa IVT, anti-PPARg (NR concentration 270 nM, RXRa partner concentration 90 nM) | 8.96 |
| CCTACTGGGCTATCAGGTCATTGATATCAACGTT | PPARg:RXRa IVT, anti-PPARg (NR concentration 270 nM, RXRa partner concentration 90 nM) | 4.19 |
| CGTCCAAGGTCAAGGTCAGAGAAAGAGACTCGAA | PPARg:RXRa IVT, anti-PPARg (NR concentration 270 nM, RXRa partner concentration 90 nM) | 4.66 |
| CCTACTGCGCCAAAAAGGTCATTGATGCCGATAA | PPARg:RXRa IVT, anti-PPARg (NR concentration 270 nM, RXRa partner concentration 90 nM) | 1.48 |
| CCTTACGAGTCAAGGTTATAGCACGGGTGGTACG | PPARg:RXRa IVT, anti-PPARg (NR concentration 270 nM, RXRa partner concentration 90 nM) | 0.156 |
| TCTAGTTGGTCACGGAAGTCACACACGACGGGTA | PPARg:RXRa IVT, anti-PPARg (NR concentration 270 nM, RXRa partner concentration 90 nM) | 2.31 |
| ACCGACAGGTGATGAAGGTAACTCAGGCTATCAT | PPARg:RXRa IVT, anti-PPARg (NR concentration 270 nM, RXRa partner concentration 90 nM) | 0.157 |
| TCTTGTAGATCAACAGGCGGTTAAGAAAGATCGA | PPARg:RXRa IVT, anti-PPARg (NR concentration 270 nM, RXRa partner concentration 90 nM) | 0.45 |
| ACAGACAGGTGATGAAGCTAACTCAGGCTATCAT | PPARg:RXRa IVT, anti-PPARg (NR concentration 270 nM, RXRa partner concentration 90 nM) | -0.28 |
| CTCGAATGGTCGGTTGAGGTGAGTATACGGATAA | PPARg:RXRa IVT, anti-PPARg (NR concentration 270 nM, RXRa partner concentration 90 nM) | 0.126 |
| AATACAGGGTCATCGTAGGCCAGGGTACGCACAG | PPARg:RXRa IVT, anti-PPARg (NR concentration 270 nM, RXRa partner concentration 90 nM) | 4.25 |
| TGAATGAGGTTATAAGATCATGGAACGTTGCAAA | PPARg:RXRa IVT, anti-PPARg (NR concentration 270 nM, RXRa partner concentration 90 nM) | 2 |
| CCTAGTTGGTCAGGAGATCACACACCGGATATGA | PPARg:RXRa IVT, anti-PPARg (NR concentration 270 nM, RXRa partner concentration 90 nM) | 0.766 |
| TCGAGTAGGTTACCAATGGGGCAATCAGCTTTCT | PPARg:RXRa IVT, anti-PPARg (NR concentration 270 nM, RXRa partner concentration 90 nM) | 2.82 |
| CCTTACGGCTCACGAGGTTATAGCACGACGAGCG | PPARg:RXRa IVT, anti-PPARg (NR concentration 270 nM, RXRa partner concentration 90 nM) | -0.209 |
| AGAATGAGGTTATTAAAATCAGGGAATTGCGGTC | PPARg:RXRa IVT, anti-PPARg (NR concentration 270 nM, RXRa partner concentration 90 nM) | 2.38 |
| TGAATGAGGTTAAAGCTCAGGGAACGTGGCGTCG | PPARg:RXRa IVT, anti-PPARg (NR concentration 270 nM, RXRa partner concentration 90 nM) | 2.59 |
| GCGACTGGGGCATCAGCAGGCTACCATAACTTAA | PPARg:RXRa IVT, anti-PPARg (NR concentration 270 nM, RXRa partner concentration 90 nM) | 2.87 |
| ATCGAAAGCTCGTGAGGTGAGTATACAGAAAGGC | PPARg:RXRa IVT, anti-PPARg (NR concentration 270 nM, RXRa partner concentration 90 nM) | 0.0817 |
| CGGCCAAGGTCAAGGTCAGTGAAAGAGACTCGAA | PPARg:RXRa IVT, anti-PPARg (NR concentration 270 nM, RXRa partner concentration 90 nM) | 4.67 |
| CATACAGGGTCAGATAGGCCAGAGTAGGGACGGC | PPARg:RXRa IVT, anti-PPARg (NR concentration 270 nM, RXRa partner concentration 90 nM) | 2.13 |
| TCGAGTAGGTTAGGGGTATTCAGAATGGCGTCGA | PPARg:RXRa IVT, anti-PPARg (NR concentration 270 nM, RXRa partner concentration 90 nM) | 2.26 |
| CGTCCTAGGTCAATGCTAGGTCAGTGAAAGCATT | PPARg:RXRa IVT, anti-PPARg (NR concentration 270 nM, RXRa partner concentration 90 nM) | 3.31 |
| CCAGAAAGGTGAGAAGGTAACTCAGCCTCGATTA | PPARg:RXRa IVT, anti-PPARg (NR concentration 270 nM, RXRa partner concentration 90 nM) | 1.98 |
| CCTAGCGGGCCAGGGTCACTCAAGCATTTCGCTT | PPARg:RXRa IVT, anti-PPARg (NR concentration 270 nM, RXRa partner concentration 90 nM) | 0.39 |
| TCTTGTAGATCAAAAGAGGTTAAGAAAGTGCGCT | PPARg:RXRa IVT, anti-PPARg (NR concentration 270 nM, RXRa partner concentration 90 nM) | 0.83 |
| CCTACTGGGCCATTCAGAGGCCATTGATCATATG | PPARg:RXRa IVT, anti-PPARg (NR concentration 270 nM, RXRa partner concentration 90 nM) | 3.43 |
| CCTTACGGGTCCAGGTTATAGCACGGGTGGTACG | PPARg:RXRa IVT, anti-PPARg (NR concentration 270 nM, RXRa partner concentration 90 nM) | -0.342 |
| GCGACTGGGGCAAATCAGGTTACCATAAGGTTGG | PPARg:RXRa IVT, anti-PPARg (NR concentration 270 nM, RXRa partner concentration 90 nM) | 3.69 |
| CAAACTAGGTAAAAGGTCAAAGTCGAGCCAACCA | PPARg:RXRa IVT, anti-PPARg (NR concentration 270 nM, RXRa partner concentration 90 nM) | 7.46 |
| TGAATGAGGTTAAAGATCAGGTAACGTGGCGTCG | PPARg:RXRa IVT, anti-PPARg (NR concentration 270 nM, RXRa partner concentration 90 nM) | 3.62 |
| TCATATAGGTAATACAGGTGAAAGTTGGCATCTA | PPARg:RXRa IVT, anti-PPARg (NR concentration 270 nM, RXRa partner concentration 90 nM) | 3.7 |
| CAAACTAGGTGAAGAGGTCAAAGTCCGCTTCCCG | PPARg:RXRa IVT, anti-PPARg (NR concentration 270 nM, RXRa partner concentration 90 nM) | 7.52 |
| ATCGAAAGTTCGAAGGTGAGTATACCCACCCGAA | PPARg:RXRa IVT, anti-PPARg (NR concentration 270 nM, RXRa partner concentration 90 nM) | 0.537 |
| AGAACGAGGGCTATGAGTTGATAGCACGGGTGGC | PPARg:RXRa IVT, anti-PPARg (NR concentration 270 nM, RXRa partner concentration 90 nM) | -0.14 |
| TCATATAGGTAGTACAGGTGAAAGTCGGCATCTA | PPARg:RXRa IVT, anti-PPARg (NR concentration 270 nM, RXRa partner concentration 90 nM) | 1.52 |
